Numbers sourced from patent US20250109140A1.

- System: HTT mRNA
- experimentDescription: Splicing RT-qPCR assay, HTT canonical (CJ) and alternative (AJ) junction mRNA
- Assay type: cell-based
- protocolConditions: Homo sapiens; Table 7; AC50 = 50% response in AJ mRNA increase; RT-qPCR, A673 or K562 cells, 24 hours treatment
pEC50: −log10 of the molar value.
measuredMetric: pEC50

Prompt: Param readout = pEC50; param system = HTT mRNA; param query = Cc1cn2nc(N3Cc4sc(C5CCNCC5)cc4C3=O)cc(C)c2n1 [Compound 1127] ; response: value
Completion: > 7.00

Next:
Prompt: GET /values?readout=pEC50&system=HTT mRNA&item= Cc1cn2nc(-c3nc4sc(C5CCNCC5)cc4s3)cc(C)c2n1 [Compound 112]
Completion: > 7.00

Prompt: So what pEC50 did Cc1cn2cc(-c3cc4cn(C5CCNCC5)nc4s3)cc(F)c2n1 [Compound 229] get with HTT mRNA?
Completion: > 7.00

Prompt: # value lookup — system HTT mRNA, readout pEC50, item Cc1cc(-n2cc3nc(C4CCNCC4)sc3n2)cc2cn(C)nc12 [Compound 1106]
Completion: 5.00 to 6.00

Prompt: Please provide the recorded pEC50 for Cn1cc2cc(N3Cc4cc(C5CCNCC5)sc4C3=O)cc(F)c2n1 [Compound 1118] , tested on HTT mRNA.
Completion: 6.00 to 7.00

Prompt: Query pEC50 on HTT mRNA for Cc1cn2cc(-n3cc4cc(C5CCNCC5)sc4n3)ncc2n1 [Compound 158]
Completion: 6.00 to 7.00

---

- Tested on: K562 (human chronic myelogenous leukemia) cells
- experimentDescription: Cell viability, Cell Titer Glo 2.0 assay, K562 cells
- Assay type: cell-based
- protocolConditions: 72 hours
The molecules listed here are annotated with their IC50.

Illustrative cases are given below, each with its answer.
Prompt: Give its IC50 value. Item: `Cc1cn2nc(-n3cc4sc(C5CCNCC5)cc4n3)nc2c(C)n1`
Completion: 1000 to 10000 nM

Prompt: For `Cc1cn2nc(-n3cc4sc(C5CCNCC5)cc4n3)cc(C)c2n1` , what is its reported IC50?
Completion: 100 to 1000 nM

Prompt: Entry `Cn1cc2cc(-n3cc4sc(C5CCNCC5)cc4n3)cc(F)c2n1` : reported IC50 = ?
Completion: 1000 to 10000 nM

Prompt: Look up IC50: `Cn1cc2cc(-n3cc4cc(C5CCNCC5)sc4n3)cc(F)c2n1`
Completion: 100 to 1000 nM

Prompt: Look up IC50: `c1n[nH]cc1-n1cc2sc(C3CCNCC3)cc2n1`
Completion: > 10000 nM

Prompt: So what does the record say about IC50 for `Cc1cc(-n2cc3nc(C4CCNCC4)sc3n2)cc2cn(C)nc12` ?
Completion: > 10000 nM

Continuing:
Prompt: Name the recorded IC50 for `Cn1cc2cc(-c3cc4cn(C5CCNCC5)nc4s3)ncc2n1` .
Completion: 1000 to 10000 nM

Prompt: I have this molecule here, `Cn1cc2c(F)cc(-n3cc4sc(C5CCNCC5)cc4n3)cc2n1` , and I need its recorded IC50.
Completion: 1000 to 10000 nM

Prompt: Please look up its IC50: `Cc1cn2cc(-n3cc4sc(C5CCNCC5)cc4n3)cc(C)c2n1`
Completion: 1000 to 10000 nM

---

- System: SMN2 mRNA
- experimentDescription: Splicing RT-qPCR gene panel, SMN2 canonical junction (CJ) mRNA
- Assay type: cell-based
- protocolConditions: Homo sapiens; Table 8; larger gene panel, decrease in CJ mRNA levels
measuredMetric: IC50

Worked cases, answers included:
Prompt: Need IC50 of Cc1cn2nc(N3Cc4sc(C5CCNCC5)cc4C3=O)cc(C)c2n1 [Compound 1127] , thanks.
Completion: < 100 nM

Prompt: Using the record for Cc1cc(-n2cc3nc(C4CCNCC4)sc3n2)cc2cn(C)nc12 [Compound 1106] , report its IC50.
Completion: 1000 to 10000 nM

Prompt: Form field: reported IC50 of Cc1cn2cc(-n3cc4cc(C5CCNCC5)sc4n3)cc(Cl)c2n1 [Compound 165]
Completion: < 100 nM

Prompt: Given COc1c(-c2cc3cn(C4CCNCC4)nc3s2)cc2cn(C)nc2c1F [Compound 218] , state its recorded IC50.
Completion: < 100 nM

Prompt: Could you share which IC50 value was measured for Cn1cc2cc(-c3cc4cn(C5CCOCC5)nc4s3)cc(F)c2n1 [Compound 161] ?
Completion: > 10000 nM

***
Prompt: Suppose we examine the compound Cn1cc2c(F)cc(-n3cc4cc(C5CCNCC5)sc4n3)cc2n1 [Compound 174] ; what IC50 value has been reported?
Completion: 1000 to 10000 nM

Prompt: Return reported IC50; argument: Cn1cc2cc(-c3nc4sc(C5CCNCC5)cn4n3)cc(F)c2n1 [Compound 103]
Completion: > 10000 nM

Prompt: Consider the compound shown here: Cc1c(O)c(-c2nc3cn(C4CCNCC4)nc3s2)cc2cn(C)nc12 [Compound 1108] What is its recorded IC50?
Completion: < 100 nM

Prompt: Entry Cc1cc(-c2cc3cn(C4CCNCC4)nc3s2)cc2cn(C)nc12 [Compound 225] has what IC50?
Completion: < 100 nM

Prompt: Given Cn1cc2cc(-c3cc4cn(C5CCNCC5)nc4s3)c(F)cc2n1 [Compound 210] , state its recorded IC50.
Completion: < 100 nM

Prompt: // returns reported IC50 for input Cn1cc2cc(N3Cc4sc(C5CCNCC5)cc4C3=O)cc(F)c2n1 [Compound 1119]
Completion: < 100 nM

Prompt: Could you tell me which IC50 is on file for COc1c(-c2cc3cn(C4CCNCC4)nc3s2)cc(F)c2nn(C)cc12 [Compound 224] ?
Completion: > 10000 nM

---

- System: Target C mRNA
- experimentDescription: Splicing RT-qPCR gene panel, Target C canonical junction (CJ) mRNA
- Type: cell-based
- protocolConditions: Homo sapiens; Table 8; larger gene panel, decrease in CJ mRNA levels
Where a name gives a salt, the structure may show the parent alone.
measuredMetric: IC50

Record excerpt, results attached:
Prompt: Suppose we examine the molecule Cc1cn2cc(-c3nc4sc(C5CCNCC5)cc4s3)cc(Cl)c2n1 [Compound 139] ; what IC50 value has been reported?
Completion: < 100 nM

Prompt: For Cc1cn2nc(N3Cc4sc(C5CCNCC5)cc4C3=O)cc(C)c2n1 [Compound 1127] , what is its reported IC50?
Completion: 100 to 1000 nM

Prompt: Please look up its IC50: Cc1cn2cc(-n3cc4cc(C5CCNCC5)sc4n3)cc(Cl)c2n1 [Compound 165]
Completion: 100 to 1000 nM

Prompt: Form field: reported IC50 of Cn1cc2cc(-n3cc4sc(C5CCNCC5)cc4n3)cc(F)c2n1 [Compound 105]
Completion: 1000 to 10000 nM

Prompt: So what does the record say about IC50 for Cc1cn2nc(-c3cc4cn(C5CCNCC5)nc4s3)c(O)c2c(C)n1 [Compound 213, hydrochloride] ?
Completion: > 10000 nM

***
Prompt: Reported IC50, molecule Cn1cc2c(F)cc(-c3nc4sc(C5CCNCC5)cc4s3)cc2n1 [Compound 131] : ____
Completion: 1000 to 10000 nM

Prompt: Name the reported IC50 value associated with the molecule Cn1cc2cc(-c3nc4sc(N5CCC56CCNCC6)cc4s3)cc(F)c2n1 [Compound 201]
Completion: > 10000 nM

---

- Tested on: SMN2 mRNA
- experimentDescription: Splicing RT-qPCR gene panel, SMN2 canonical junction (CJ) mRNA
- Format: cell-based
- protocolConditions: Homo sapiens; Table 8; larger gene panel, decrease in CJ mRNA levels
pIC50: −log10 of the molar value.
// values below are reported pIC50

Prompt: Request the reported pIC50 associated with `Cn1cc2cc(-c3cc4cn(C5CCNCC5)nc4s3)c(C#N)cc2n1`
Completion: 6.00 to 7.00

Prompt: What pIC50 value was documented for this molecule, `Cc1cn2nc(-c3cc4cn(C5CCNCC5)nc4s3)cc(C)c2n1` ?
Completion: > 7.00

Further cases:
Prompt: Please look up its pIC50: Cn1cc2cc(-c3nc4sc(N5CCC56CCNC6)cc4s3)cc(F)c2n1 (stereo not drawn)
Completion: 5.00 to 6.00

---

- Tested on: SMN2 mRNA
- experimentDescription: Splicing RT-qPCR gene panel, SMN2 canonical junction (CJ) mRNA
- Format: cell-based
- protocolConditions: Homo sapiens; Table 8; larger gene panel, decrease in CJ mRNA levels
pIC50: −log10 of the molar value. Counter-ions that a name gives are not always drawn.
measuredMetric: pIC50

Below: 2 molecules and their reported pIC50.
Prompt: # pIC50 lookup, item Cc1cn2nc(-c3cc4cn(C5CCNCC5)nc4s3)c(O)c2c(C)n1 [Compound 213, hydrochloride]
Completion: 5.00 to 6.00

Prompt: What measured pIC50 goes with `Cn1cc2cc(-c3cc4cn(C5CNC5)nc4s3)cc(F)c2n1` ?
Completion: 6.00 to 7.00

Others:
Prompt: Entry Cc1cn2cc(-c3nc4sc(C5CCNCC5)cc4s3)cc(F)c2n1 [Compound 130, hydrochloride] has what pIC50?
Completion: > 7.00

Prompt: Request the reported pIC50 associated with `Cc1cn2cc(-c3cc4cn(C5CCNCC5)nc4s3)cc(C)c2n1`
Completion: > 7.00

Prompt: Look up pIC50: CN1CCCC2(CCN2c2cc3sc(-c4cc(F)c5nn(C)cc5c4)nc3s2)C1 (centres unmarked)
Completion: 5.00 to 6.00
